target: histamine H3 receptor (Homo sapiens, UniProt Q9Y5N1); construct: expressed in transfected cells; host or cells: CHO K1 cells (pSwitch/pGene GeneSwitch system, mifepristone-induced), clone 3H3; membranes; test: Histamine H3 functional antagonist assay ([35S]-GTPγS SPA on membranes of H3 cells); type: biochemical; settings: membrane prepared from cultured H3 cells (CHO K1, human H3); histamine at EC80; averages of a number of experiments; read-out: functional pKi (fpKi), H3 functional antagonist assay (converted)
Sequence (Q9Y5N1 whole entry): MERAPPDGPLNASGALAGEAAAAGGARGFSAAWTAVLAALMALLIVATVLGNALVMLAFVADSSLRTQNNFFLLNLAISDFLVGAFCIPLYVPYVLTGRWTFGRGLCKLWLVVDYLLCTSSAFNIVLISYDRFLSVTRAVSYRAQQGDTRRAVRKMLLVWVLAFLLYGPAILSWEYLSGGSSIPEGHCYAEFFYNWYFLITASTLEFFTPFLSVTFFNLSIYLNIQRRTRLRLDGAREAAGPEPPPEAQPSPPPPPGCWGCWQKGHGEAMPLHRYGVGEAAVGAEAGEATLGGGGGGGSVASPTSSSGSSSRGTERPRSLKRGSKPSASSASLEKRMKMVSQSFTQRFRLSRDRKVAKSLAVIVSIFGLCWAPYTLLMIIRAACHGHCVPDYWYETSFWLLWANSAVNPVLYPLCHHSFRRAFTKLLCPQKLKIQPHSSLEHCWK
property.name: Ki

>  <smiles.representation>
NC(=O)c1ccc(Cc2ccc3c(c2)CCN(C2CCC2)CC3)cc1

>  <result.value>
< 0.316 nM

$$$$

Value of Ki reported for the molecule O=C(c1ccc(Cc2ccc3c(c2)CCN(C2CCC2)CC3)cc1)N1CCCC1 is < 3.16 nM

Value of Ki reported for the molecule N#CCNC(=O)c1cnc(Cc2ccc3c(c2)CCN(C2CCC2)CC3)cn1 is < 3.16 nM

Value of Ki reported for the molecule c1cnn(-c2ccc(Cc3ccc4c(c3)CCN(C3CCC3)CC4)cc2)c1 is < 0.316 nM
